The reported measurements were obtained from patent US6352703B1.

Tested on: Mucor spp. fungus
Experiment: Antifungal filter paper disk test, trial 1 (Sabouraud dextrose agar)
Type: cell-based
Details: trial 1, rate 200 μg per disk, day 6
Description: Mucor was isolated from a Formosan termite nest in our laboratory, a nest originally collected from a cottonwood tree in New Orleans, La. The fungus comprised a white mat that covered large areas of the nest that had been exposed to air and water. […] Fungal growth on each filter paper disk was recorded by making tracings of the disks, inking in areas with visible fungal growth. […] The fraction of each circle covered with fungus was then calculated as the ratio of these weights. […]
quantity: Fraction covered, Day 6 (mean percentage of filter paper disk surface covered by fungus)
Output should be the measured figure followed by the unit it is expressed in.

*Q* Please report the recorded Fraction covered, Day 6 (mean percentage of filter paper disk surface covered by fungus) for CCCCCCCCOC(=O)CCCCC(=O)OCCCCCCCC [Adipic dioctyl ester, adipic dioctyl ester] .
*A* 91%

*Q* Please report the recorded Fraction covered, Day 6 (mean percentage of filter paper disk surface covered by fungus) for Cc1cc(C(C)(C)C)c(O)c(C(C)(C)C)c1 [BHT, butylated hydroxytoluene] .
*A* 93%

*Q* Please report the recorded Fraction covered, Day 6 (mean percentage of filter paper disk surface covered by fungus) for c1ccc2ccccc2c1 [Naphthalene, naphthalene] .
*A* 100%

*Q* Please report the recorded Fraction covered, Day 6 (mean percentage of filter paper disk surface covered by fungus) for CCCCCCCCOC(=O)c1ccccc1C(=O)OCCCCCCCC [Dioctyl phthalate, dioctyl phthalate] .
*A* 82%
